molecular target: angiotensin converting enzyme (Oryctolagus cuniculus); construct: the supernatant was further purified with hydroxyapatite to obtain an angiotensin converting enzyme solution; from tissue; host or cells: rabbit lung (acetone powder); experiment: ACE inhibition activity (hippuroylhistidylleucine substrate, hippuric acid absorbance at 228 nm); assay type: biochemical, rabbit; conditions: concentration at which the inhibition rate (E2) was found; not 50%
Non-standard residues stand in square brackets, D forms with d. Residues, ends and D or L forms follow the SMILES beside them.
Entries and their Concentration giving the inhibition rate

{"compound": "CC(C)C[C@H](N)C(=O)N[C@@H](Cc1ccc(O)cc1)C(=O)N1CCC[C@H]1C(=O)O [L--Leu--L--Tyr--L--Pro, L-Leu-L-Tyr-L-Pro] (H-Leu-Tyr-Pro-OH)", "target_of_assay": "angiotensin converting enzyme (Oryctolagus cuniculus)", "Concentration giving the inhibition rate": "12 µM"}
{"compound": "CC(C)C[C@H](N)C(=O)N[C@@H](CCC(=O)O)C(=O)N1CCC[C@H]1C(=O)O [L--Leu--L--Glu--L--Pro, L-Leu-L-Glu-L-Pro] (H-Leu-Glu-Pro-OH)", "target_of_assay": "angiotensin converting enzyme (Oryctolagus cuniculus)", "Concentration giving the inhibition rate": "24 µM"}
{"compound": "CC(C)C[C@@H](N)C(=O)N[C@@H](CCCNC(=N)N)C(=O)N1CCC[C@H]1C(=O)O [D--Leu--L--Arg--L--Pro, D-Leu-L-Arg-L-Pro] (H-[dL]-Arg-Pro-OH)", "target_of_assay": "angiotensin converting enzyme (Oryctolagus cuniculus)", "Concentration giving the inhibition rate": "45 µM"}
{"compound": "CC(C)C[C@H](N)C(=O)NCC(=O)N1CCC[C@H]1C(=O)O [L--Leu--Gly--L--Pro, L-Leu-Gly-L-Pro] (H-Leu-Gly-Pro-OH)", "target_of_assay": "angiotensin converting enzyme (Oryctolagus cuniculus)", "Concentration giving the inhibition rate": "60 µM"}
{"compound": "CC(C)C[C@H](N)C(=O)N[C@@H](CC(=O)O)C(=O)N1CCC[C@H]1C(=O)O [L--Leu--L--Asp--L--Pro, L-Leu-L-Asp-L-Pro] (H-Leu-Asp-Pro-OH)", "target_of_assay": "angiotensin converting enzyme (Oryctolagus cuniculus)", "Concentration giving the inhibition rate": "182 µM"}
{"compound": "CC(C)C[C@H](N)C(=O)N[C@H](C(=O)N1CCC[C@H]1C(=O)O)[C@@H](C)O [L--Leu--L--Thr--L--Pro, L-Leu-L-Thr-L-Pro] (H-Leu-Thr-Pro-OH)", "target_of_assay": "angiotensin converting enzyme (Oryctolagus cuniculus)", "Concentration giving the inhibition rate": "3.4 µM"}

* * *

Entries and their pIC50
Target: angiotensin converting enzyme (Oryctolagus cuniculus)
Construct: the supernatant was further purified with hydroxyapatite to obtain an angiotensin converting enzyme solution; from tissue; host or cells: rabbit lung (acetone powder)
Sequence (P12822 34-1310): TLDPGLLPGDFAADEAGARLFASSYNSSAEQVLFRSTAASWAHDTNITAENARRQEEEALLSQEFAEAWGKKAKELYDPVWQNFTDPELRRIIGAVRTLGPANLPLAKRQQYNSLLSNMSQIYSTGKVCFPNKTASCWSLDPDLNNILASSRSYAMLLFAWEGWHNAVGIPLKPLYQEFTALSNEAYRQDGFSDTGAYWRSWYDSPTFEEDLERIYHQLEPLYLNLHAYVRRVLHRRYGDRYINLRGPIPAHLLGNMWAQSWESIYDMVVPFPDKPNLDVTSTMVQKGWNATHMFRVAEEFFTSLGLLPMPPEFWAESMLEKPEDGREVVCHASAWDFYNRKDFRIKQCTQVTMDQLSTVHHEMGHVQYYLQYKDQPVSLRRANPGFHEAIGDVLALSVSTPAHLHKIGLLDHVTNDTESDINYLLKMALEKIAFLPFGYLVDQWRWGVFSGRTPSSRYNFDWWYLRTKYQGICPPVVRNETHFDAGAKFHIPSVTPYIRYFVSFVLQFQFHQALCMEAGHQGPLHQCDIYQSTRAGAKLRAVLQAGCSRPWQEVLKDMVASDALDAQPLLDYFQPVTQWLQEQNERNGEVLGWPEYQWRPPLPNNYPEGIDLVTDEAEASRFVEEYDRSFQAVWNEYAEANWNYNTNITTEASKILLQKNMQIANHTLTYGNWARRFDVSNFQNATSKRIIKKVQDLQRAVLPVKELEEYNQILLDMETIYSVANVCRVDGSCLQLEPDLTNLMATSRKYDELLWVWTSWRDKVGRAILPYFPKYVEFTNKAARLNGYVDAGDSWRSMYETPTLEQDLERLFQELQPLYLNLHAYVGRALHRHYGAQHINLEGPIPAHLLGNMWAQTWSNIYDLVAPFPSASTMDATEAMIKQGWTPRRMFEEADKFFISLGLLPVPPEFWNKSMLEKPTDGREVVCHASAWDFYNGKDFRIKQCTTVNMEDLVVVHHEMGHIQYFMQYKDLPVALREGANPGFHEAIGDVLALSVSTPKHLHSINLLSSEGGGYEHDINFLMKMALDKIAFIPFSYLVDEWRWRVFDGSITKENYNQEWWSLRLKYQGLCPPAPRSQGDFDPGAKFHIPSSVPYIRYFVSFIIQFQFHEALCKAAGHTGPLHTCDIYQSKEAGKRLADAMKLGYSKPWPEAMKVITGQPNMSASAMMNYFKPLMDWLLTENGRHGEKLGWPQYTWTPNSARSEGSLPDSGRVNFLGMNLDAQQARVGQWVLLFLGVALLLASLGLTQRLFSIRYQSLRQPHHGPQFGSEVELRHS
Experiment: ACE inhibition activity (hippuroylhistidylleucine substrate, hippuric acid absorbance at 228 nm)
Assay type: biochemical, rabbit
Settings: rabbit lung ACE, 5 mM hippuroylhistidylleucine, 37° C. 30 minutes; read-out: IC50
pIC50: −log10 of the molar value. Residues, ends and D or L forms follow the SMILES beside them.

{"molecule": "CC(C)C[C@H](N)C(=O)N[C@@H](CCCN=C(N)N)C(=O)N1CCC[C@H]1C(=O)O [L--Leu--L--Arg--L--Pro, L-Leu-L-Arg-L-Pro] (H-Leu-Arg-Pro-OH)", "target_of_assay": "angiotensin converting enzyme (Oryctolagus cuniculus)", "pIC50": 6.57}
{"molecule": "CC(C)[C@H](N)C(=O)N[C@@H](CO)C(=O)N1CCC[C@H]1C(=O)O [L--Val--L--Ser--Ser--L--Pro, L-Val-L-Ser-L-Pro] (H-Val-Ser-Pro-OH; N-terminus and C-terminus assumed)", "target_of_assay": "angiotensin converting enzyme (Oryctolagus cuniculus)", "pIC50": 5.00}
{"molecule": "CC(C)C[C@H](NC(=O)[C@@H](N)CC(C)C)C(=O)N1CCC[C@H]1C(=O)O [L--Leu--L--Leu--L--Pro, L-Leu-L-Leu-L-Pro] (H-Leu-Leu-Pro-OH)", "target_of_assay": "angiotensin converting enzyme (Oryctolagus cuniculus)", "pIC50": 4.24}
{"molecule": "CC(C)[C@H](N)C(=O)N[C@@H](C)C(=O)N[C@@H](C)C(=O)O [L--Val--L--Ala--L--Ala, L-Val-L-Ala-L-Ala] (H-Val-Ala-Ala-OH)", "target_of_assay": "angiotensin converting enzyme (Oryctolagus cuniculus)", "pIC50": 4.89}
{"molecule": "CC(C)C[C@H](N)C(=O)N[C@@H](CCC(N)=O)C(=O)N1CCC[C@H]1C(=O)O [L--Leu--L--Gln--L-- Pro, L-Leu-L-Gln-L-Pro] (H-Leu-Gln-Pro-OH)", "target_of_assay": "angiotensin converting enzyme (Oryctolagus cuniculus)", "pIC50": 5.72}
